IC50: recorded values
# Measured on: Glycogen phosphorylase, liver form (Homo sapiens, UniProt P06737)
# Sequence (P06737 whole entry): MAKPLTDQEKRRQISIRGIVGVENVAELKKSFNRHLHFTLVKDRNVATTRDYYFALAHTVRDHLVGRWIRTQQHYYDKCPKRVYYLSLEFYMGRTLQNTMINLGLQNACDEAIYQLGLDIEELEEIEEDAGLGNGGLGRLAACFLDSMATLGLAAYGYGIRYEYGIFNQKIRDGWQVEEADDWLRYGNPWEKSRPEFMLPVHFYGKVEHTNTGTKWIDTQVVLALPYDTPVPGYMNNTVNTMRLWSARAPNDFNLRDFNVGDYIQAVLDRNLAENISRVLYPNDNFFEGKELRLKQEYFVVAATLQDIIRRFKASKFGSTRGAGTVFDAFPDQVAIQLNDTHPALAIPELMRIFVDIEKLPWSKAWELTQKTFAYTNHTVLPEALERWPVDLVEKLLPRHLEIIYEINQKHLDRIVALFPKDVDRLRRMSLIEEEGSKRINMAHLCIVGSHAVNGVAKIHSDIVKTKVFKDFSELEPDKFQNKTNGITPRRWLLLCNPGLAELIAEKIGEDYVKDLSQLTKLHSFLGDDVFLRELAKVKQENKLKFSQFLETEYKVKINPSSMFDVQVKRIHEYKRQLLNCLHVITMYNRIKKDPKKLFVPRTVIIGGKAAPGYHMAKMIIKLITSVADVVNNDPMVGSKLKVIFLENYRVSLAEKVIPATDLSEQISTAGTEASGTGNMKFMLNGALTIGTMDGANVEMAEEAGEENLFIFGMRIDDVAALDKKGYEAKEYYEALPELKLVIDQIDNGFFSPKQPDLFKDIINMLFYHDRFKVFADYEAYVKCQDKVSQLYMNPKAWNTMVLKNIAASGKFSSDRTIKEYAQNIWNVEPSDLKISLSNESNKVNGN
# Assay notes: Inhibitory concentration against glycogen phosphorylase

{"columns": ["Record smiles", "Operator", "IC50, nM"],
 "data": [
  ["CN(C)CCCN(C(=O)CNC(=O)c1cc2cc(Cl)ccc2[nH]1)C1CCCC1", "=", 5000],
  ["O=C(NCC(=O)N(CCO)C1CCCCCCCCC1)c1cc2cc(Cl)ccc2[nH]1", "=", 210],
  ["CN(CCc1ccccc1)C(=O)CNC(=O)c1cc2cc(Cl)ccc2[nH]1", ">", 10000],
  ["CC(C)(C)N(CCO)C(=O)CNC(=O)c1cc2cc(Cl)ccc2[nH]1", "=", 290],
  ["COCCCN(C(=O)CNC(=O)c1cc2cc(Cl)ccc2[nH]1)C1CCCC1", "=", 370],
  ["O=C(NCC(=O)N(CCO)C1CCC1)c1cc2cc(Cl)ccc2[nH]1", "=", 130],
  ["O=C(NCC(=O)N(CCO)C1CC1)c1cc2cc(Cl)ccc2[nH]1", "=", 200]
]}
